Where a SMILES comes first, the peptide text is derived from it.
Here's what we have: pKi numbers for Proteinase-activated receptor 2 (Rattus norvegicus, UniProt Q63645).
Scale: negative log10 of molar concentration, which is what pKi denotes.

MOLECULE	pKi
CC(C)C[C@H](NC(=O)[C@H](CC(C)C)NC(=O)[C@H](Cc1ccccc1)NC(=O)[C@@H](N)CO)C(=O)N[C@@H](CCCN=C(N)N)C(N)=O	5.64
CC[C@H](C)[C@H](NC(=O)[C@H](CC(C)C)NC(=O)[C@@H](N)CO)C(=O)NCC(=O)N[C@@H](CCCNC(=N)N)C(=O)N[C@@H](CC(C)C)C(N)=O [CAS_171436-38-7] (H-SLIGRL-NH2)	6.59

The molecule CC[C@H](C)[C@H](NC(=O)[C@H](CC(C)C)NC(=O)C=Cc1ccccc1)C(=O)NCC(=O)N[C@@H](CCCNC(=N)N)C(=O)N[C@@H](CC(C)C)C(=O)N[C@@H](CCCN)C(N)=O [trans-cinnamoyl-LIGRLO-NH2] (HELM PEPTIDE1{[O=C(C=Cc1ccccc1)[*:2]].L.I.G.R.L.[Orn].[am]}$$$$V2.0) showed pKi equal to 6.59

Data origin, for the record: BindingDB's records for PubMed 10411588
